- study-system: O-acyltransferase (Oryctolagus cuniculus)
- Sequence (G1SFD9 1-524): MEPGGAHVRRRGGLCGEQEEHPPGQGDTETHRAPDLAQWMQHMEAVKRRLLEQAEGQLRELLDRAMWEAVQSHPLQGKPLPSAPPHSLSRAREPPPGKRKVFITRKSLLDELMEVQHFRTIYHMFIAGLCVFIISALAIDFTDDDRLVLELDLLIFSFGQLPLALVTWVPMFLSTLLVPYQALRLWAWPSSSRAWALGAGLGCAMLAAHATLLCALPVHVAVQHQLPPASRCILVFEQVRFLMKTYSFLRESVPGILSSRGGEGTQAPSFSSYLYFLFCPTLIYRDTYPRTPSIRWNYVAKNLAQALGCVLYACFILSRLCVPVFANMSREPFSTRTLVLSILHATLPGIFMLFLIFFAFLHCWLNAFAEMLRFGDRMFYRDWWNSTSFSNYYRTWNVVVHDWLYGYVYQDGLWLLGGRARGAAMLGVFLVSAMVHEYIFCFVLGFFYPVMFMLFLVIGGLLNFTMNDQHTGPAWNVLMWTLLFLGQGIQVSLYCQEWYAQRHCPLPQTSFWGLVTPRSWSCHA
- test-summary: Acyl coenzyme A:cholesterol acyltransferase (ACAT), inhibition by incubation with [1-14C]oleolyl-CoA and intestinal microsomes isolated from intestinal mucosa of cholesterol-fed rabbits
value-kind: log10 of IC50 (log10 of the value in nM)
Heads up, the numbers here are log10 of IC50 in nM units.

Known log10 of IC50 results, listed for orientation:
compound-string | study-system | value-kind | measured-result
CCCCCCCC/C=C\CCCCCCCCNC(=O)c1c(OC)cc(OC)cc1OC | O-acyltransferase (Oryctolagus cuniculus) | log10 of IC50 | 3.97
CCCCCCCC/C=C\CCCCCCCCNC(=O)Nc1c(CC)cccc1CC | O-acyltransferase (Oryctolagus cuniculus) | log10 of IC50 | 1.63
CCCCCCCC/C=C\CCCCCCCCNC(=O)Nc1ccccc1CC | O-acyltransferase (Oryctolagus cuniculus) | log10 of IC50 | 2.99

Prompt line: Observed log10 of IC50 on O-acyltransferase (Oryctolagus cuniculus) for CCCCNC(=O)Nc1c(C(C)C)cccc1C(C)C , please.
Response line: 2.80

Prompt line: Observed log10 of IC50 on O-acyltransferase (Oryctolagus cuniculus) for CCCCCCCCCCC(C)(C)NC(=O)Nc1ccccc1CC , please.
Response line: 2.70

Prompt line: Observed log10 of IC50 on O-acyltransferase (Oryctolagus cuniculus) for CCCCCCCC/C=C\CCCCCCCCNC(=O)c1c(C)cccc1C , please.
Response line: 3.99

Prompt line: Observed log10 of IC50 on O-acyltransferase (Oryctolagus cuniculus) for CCCCCCCCCCCCCCNC(=O)Nc1c(CC)cccc1C(C)C , please.
Response line: 1.26

Prompt line: Observed log10 of IC50 on O-acyltransferase (Oryctolagus cuniculus) for CCCCCCCC/C=C\CCCCCCCCNC(=O)Nc1cc(C)ccc1C , please.
Response line: 3.65

Prompt line: Observed log10 of IC50 on O-acyltransferase (Oryctolagus cuniculus) for CCCCCCCCCCNC(=O)Nc1c(CC)cccc1CC , please.
Response line: 2.00

Prompt line: Observed log10 of IC50 on O-acyltransferase (Oryctolagus cuniculus) for CCCCCCCC/C=C\CCCCCCCCNC(=O)Nc1c(C)cccc1C , please.
Response line: 2.20

Prompt line: Observed log10 of IC50 on O-acyltransferase (Oryctolagus cuniculus) for CCCCCCCCCCNC(=O)Nc1c(C)cccc1C(C)(C)C , please.
Response line: 2.30

Prompt line: Observed log10 of IC50 on O-acyltransferase (Oryctolagus cuniculus) for CCCCCCCCCCCCCCCCCCNC(=O)Nc1c(C(C)C)cccc1C(C)C , please.
Response line: 1.68

Prompt line: Observed log10 of IC50 on O-acyltransferase (Oryctolagus cuniculus) for CCCCCCCCCCNC(=O)Nc1c(C(C)C)cccc1C(C)C , please.
Response line: 1.75

Prompt line: Observed log10 of IC50 on O-acyltransferase (Oryctolagus cuniculus) for CCCCCCCC/C=C\CCCCCCCCNC(=O)Nc1c(C(C)C)cccc1C(C)C , please.
Response line: 1.45

Prompt line: Observed log10 of IC50 on O-acyltransferase (Oryctolagus cuniculus) for CCCCCCCCCCCCCCNC(=O)Nc1c(Br)cc(CC)cc1Br , please.
Response line: 2.72

Prompt line: Observed log10 of IC50 on O-acyltransferase (Oryctolagus cuniculus) for CCCCCCCCCCCCCCNC(=O)Nc1c(C)cccc1Cl , please.
Response line: 1.85

Prompt line: Observed log10 of IC50 on O-acyltransferase (Oryctolagus cuniculus) for CCCCCCCC/C=C\CCCCCCCCNC(=O)Nc1ccccc1OC , please.
Response line: 3.52

Prompt line: Observed log10 of IC50 on O-acyltransferase (Oryctolagus cuniculus) for CCCCCCCCCCC(C)(C)NC(=O)Nc1c(C(C)C)cccc1C(C)C , please.
Response line: 1.65

Prompt line: Observed log10 of IC50 on O-acyltransferase (Oryctolagus cuniculus) for CCCCCCCCCCCCCCCCCCNC(=O)Nc1c(C)cccc1C , please.
Response line: 2.79

Prompt line: Observed log10 of IC50 on O-acyltransferase (Oryctolagus cuniculus) for CCCCCCCCCCCCCCCCCCOC(=O)Nc1c(OC)cc(OC)cc1OC , please.
Response line: 3.85

Prompt line: Observed log10 of IC50 on O-acyltransferase (Oryctolagus cuniculus) for CCCCCCCC/C=C\CCCCCCC/C(S)=N/c1c(OC)cc(OC)cc1OC , please.
Response line: 2.95
